Target: UniProt:P62993
Sequence (P62993 whole entry): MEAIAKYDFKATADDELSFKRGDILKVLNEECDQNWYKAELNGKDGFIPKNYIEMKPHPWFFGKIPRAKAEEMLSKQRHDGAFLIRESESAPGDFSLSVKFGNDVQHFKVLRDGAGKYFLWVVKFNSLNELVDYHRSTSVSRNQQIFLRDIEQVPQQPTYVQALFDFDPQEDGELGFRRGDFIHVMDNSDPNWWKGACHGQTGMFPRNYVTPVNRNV
pIC50: −log10 of the molar value.
Returns 1.0 if the recorded pIC50 is greater than or equal to 7, and 0.0 otherwise.

> print(dat)
                               entry.smiles  category.label
1  NC(=O)C[C@H](NC(=O)C1(NC(=O)[C@H](Cc2ccc(C(F)(C(=O)O)C(=O)O)cc2)NC(=O)C(=O)O)CCCCC1)C(=O)NCCCc1cccc2ccccc12             0.0
2  CC(=O)N[C@@H](Cc1ccc(C(C(=O)O)C(=O)O)cc1)C(=O)NC1(C(=O)N[C@@H](CC(N)=O)C(=O)NCCCn2ccc3cc(C)ccc32)CCCCC1             1.0
3  CC(=O)N[C@@H](Cc1ccc(OCC(=O)O)cc1)C(=O)NC1(C(=O)N[C@@H](CC(N)=O)C(=O)NCCCc2cccc3ccccc23)CCCCC1             0.0
4  NC(=O)C[C@H](NC(=O)C1(NC(=O)[C@H](Cc2ccc(OCC(=O)O)cc2)NC(=O)C(=O)O)CCCCC1)C(=O)NCCCc1cccc2ccccc12             0.0
